inhibition at 1 µM: recorded values
Tested on: MDA-MB-436 breast cancer
Assay: MTT assay, proliferation inhibition
Assay type: cell-based
Condition Set: Homo sapiens, read-out: Proliferation inhibition rate
Report the value in % with no unit label.

CO[C@H]1C(=O)[C@]2(C)CC[C@H]3OC[C@@]3(OC(C)=O)[C@H]2[C@H](OC(=O)c2ccccc2)[C@]2(O)C[C@H](OC(=O)[C@H](O)[C@@H](NC(=O)OC(C)(C)C)c3ccccc3)C(C)=C1C2(C)C 80.1
COC(=O)O[C@H]1C[C@H]2OC[C@@]2(OC(C)=O)[C@H]2[C@H](OC(=O)c3ccccc3)[C@]3(O)C[C@H](OC(=O)[C@H](O)[C@@H](NC(=O)OC(C)(C)C)c4ccccc4)C(C)=C([C@@H](OC)C(=O)[C@]12C)C3(C)C 77.5
CCSC(=O)O[C@H]1C[C@H]2OC[C@@]2(OC(C)=O)[C@H]2[C@H](OC(=O)c3ccccc3)[C@]3(O)C[C@H](OC(=O)[C@H](O)[C@@H](NC(=O)N(C)C)c4ccccc4)C(C)=C([C@@H](OC)C(=O)[C@]12C)C3(C)C 83.6

From here, focus on the item given below.
Kindly note the recorded inhibition at 1 µM for `CO[C@H]1C(=O)[C@]2(C)C=C[C@@H](O)[C@](CO)(OC(C)=O)[C@H]2[C@H](OC(=O)c2ccccc2)[C@]2(O)C[C@H](OC(=O)[C@H](O)[C@@H](NC(=O)c3ccccc3)c3ccccc3)C(C)=C1C2(C)C` , which is 35.7

====

Recorded measurements of recovery, one per entry
Assay: Caco-2 cell monolayer membrane transport assay
Condition Set: human, Caco-2, Recovery rate in mass, Sample-01, Caco-2; A-B; Sample-01
Use % as the unit, but write only the number.

// solved cases for recovery follow
CO[C@H]1C(=O)[C@]2(C)[C@@H](OC(=O)N(C)C)C[C@H]3OC[C@@]3(OC(C)=O)[C@H]2[C@H](OC(=O)c2ccccc2)[C@]2(O)C[C@H](OC(=O)[C@H](O)[C@@H](NC(=O)c3ccccc3)c3ccccc3)C(C)=C1C2(C)C 82.1
COC(=O)O[C@H]1C[C@H]2OC[C@@]2(OC(C)=O)[C@H]2[C@H](OC(=O)c3ccccc3)[C@]3(O)C[C@H](OC(=O)[C@H](O)[C@@H](NC(=O)c4ccccc4)c4ccccc4)C(C)=C([C@@H](OC)C(=O)[C@]12C)C3(C)C 81.2
CO[C@H]1C(=O)[C@]2(C)[C@@H](OC(=O)N(C)C)C[C@H]3OC[C@@]3(OC(C)=O)[C@H]2[C@H](OC(=O)c2ccccc2)[C@]2(O)C[C@H](OC(=O)[C@H](O)[C@@H](NC(=O)N(C)C)c3ccccc3)C(C)=C1C2(C)C 95

The compound listed as `CO[C@H]1C(=O)[C@]2(C)CC[C@H]3OC[C@@]3(OC(C)=O)[C@H]2[C@H](OC(=O)c2ccccc2)[C@]2(O)C[C@H](OC(=O)[C@H](O)[C@H](CC(C)C)NC(=O)OC(C)(C)C)C(C)=C1C2(C)C` has a reported recovery of 81

Reported recovery ( `COC(=O)O[C@H]1C[C@H]2OC[C@@]2(OC(C)=O)[C@H]2[C@H](OC(=O)c3ccccc3)[C@]3(O)C[C@H](OC(=O)[C@H](O)[C@@H](NC(=O)OC(C)(C)C)c4ccccc4)C(C)=C([C@@H](OC)C(=O)[C@]12C)C3(C)C` ) = 95.5

Data point: `COC(=O)O[C@H]1C(=O)[C@]2(C)[C@@H](OC)C[C@H]3OC[C@@]3(OC(C)=O)[C@H]2[C@H](OC(=O)c2ccccc2)[C@]2(O)C[C@H](OC(=O)[C@H](O)[C@H](CC(C)C)NC(=O)OC(C)(C)C)C(C)=C1C2(C)C` ; recovery = 64.8

`CO[C@H]1C[C@H]2OC[C@@]2(OC(C)=O)[C@H]2[C@H](OC(=O)c3ccccc3)[C@]3(O)C[C@H](OC(=O)[C@H](O)[C@@H](NC(=O)OC(C)(C)C)c4ccccn4)C(C)=C([C@@H](OC(=O)N(C)C)C(=O)[C@]12C)C3(C)C` yielded recovery of 106

The value of recovery measured for the compound `CO[C@H]1C(=O)[C@]2(C)CC[C@H]3OC[C@@]3(OC(C)=O)[C@H]2[C@H](OC(=O)c2ccccc2)[C@]2(O)C[C@H](OC(=O)[C@H](O)[C@@H](NC(=O)OC(C)(C)C)c3ccccc3)C(C)=C1C2(C)C` turned out to be 97

====

inhibition at 1 µM: recorded values
System: K562 leukemia
Assay: MTT assay, proliferation inhibition
Type: cell-based
Condition Set: Homo sapiens, read-out: Proliferation inhibition rate
# value in %; strip the unit string

CO[C@H]1C[C@H]2OC[C@@]2(OC(C)=O)[C@H]2[C@H](OC(=O)c3ccccc3)[C@]3(O)C[C@H](OC(=O)[C@H](O)[C@H](CC(C)C)NC(=O)OC(C)(C)C)C(C)=C([C@@H](OC(=O)N(C)C)C(=O)[C@]12C)C3(C)C 90.9
CO[C@H]1C(=O)[C@]2(C)[C@@H](OC(=O)N(C)C)C[C@H]3OC[C@@]3(OC(C)=O)[C@H]2[C@H](OC(=O)c2ccccc2)[C@]2(O)C[C@H](OC(=O)[C@H](O)[C@@H](NC(=O)c3ccccc3)c3ccccc3)C(C)=C1C2(C)C 91
COC(=O)O[C@H]1C[C@H]2OC[C@@]2(OC(C)=O)[C@H]2[C@H](OC(=O)c3ccccc3)[C@]3(O)C[C@H](OC(=O)[C@H](O)[C@@H](NC(=O)c4ccccc4)c4ccccc4)C(C)=C([C@@H](OC)C(=O)[C@]12C)C3(C)C 94.5

Here is another compound to look at.
Looking up `COC(=O)O[C@H]1C(=O)[C@]2(C)[C@@H](OC)C[C@H]3OC[C@@]3(OC(C)=O)[C@H]2[C@H](OC(=O)c2ccccc2)[C@]2(O)C[C@H](OC(=O)[C@H](O)[C@@H](NC(=O)c3ccccc3)c3ccccc3)C(C)=C1C2(C)C` , I found its inhibition at 1 µM recorded as 94.5

====

System: MDA-MB-436 breast cancer
Assay: MTT assay, proliferation inhibition
Assay type: cell-based
Condition Set: Homo sapiens, read-out: Proliferation inhibition rate
Measurement Kind: inhibition at 1 µM

Compound	inhibition at 1 µM
CO[C@H]1C(=O)[C@]2(C)[C@@H](OC(=O)N(C)C)C[C@H]3OC[C@@]3(OC(C)=O)[C@H]2[C@H](OC(=O)c2ccccc2)[C@]2(O)C[C@H](OC(=O)[C@H](O)[C@@H](NC(=O)N(C)C)c3ccccc3)C(C)=C1C2(C)C [PCMI-35]	80.2%
CO[C@H]1C[C@H]2OC[C@@]2(OC(C)=O)[C@H]2[C@H](OC(=O)c3ccccc3)[C@]3(O)C[C@H](OC(=O)[C@H](O)[C@H](CC(C)C)NC(=O)OC(C)(C)C)C(C)=C([C@@H](OC(=O)N(C)C)C(=O)[C@]12C)C3(C)C [PCMI-25]	78.4%
CCSC(=O)O[C@H]1C(=O)[C@]2(C)[C@@H](OC)C[C@H]3OC[C@@]3(OC(C)=O)[C@H]2[C@H](OC(=O)c2ccccc2)[C@]2(O)C[C@H](OC(=O)[C@H](O)[C@@H](NC(=O)OC(C)(C)C)c3ccccc3)C(C)=C1C2(C)C [PCMI-30]	81.3%
COC(=O)O[C@H]1C[C@H]2OC[C@@]2(OC(C)=O)[C@H]2[C@H](OC(=O)c3ccccc3)[C@]3(O)C[C@H](OC(=O)[C@H](O)[C@H](CC(C)C)NC(=O)OC(C)(C)C)C(C)=C([C@@H](OC)C(=O)[C@]12C)C3(C)C [PCMI-39]	78.4%

# next compound below
So for CO[C@H]1C(=O)[C@]2(C)[C@@H](OC(=O)N(C)C)C[C@H]3OC[C@@]3(OC(C)=O)[C@H]2[C@H](OC(=O)c2ccccc2)[C@]2(O)C[C@H](OC(=O)[C@H](O)[C@H](CC(C)C)NC(=O)OC(C)(C)C)C(C)=C1C2(C)C [PCMI-34] , the logged inhibition at 1 µM turned out to be 81.2%

====

Assay: Caco-2 cell monolayer membrane transport assay
Condition Set: human, Caco-2, Recovery rate in mass, Sample-02, Caco-2; A-B; Sample-02
Measurement Kind: recovery (%)
Supply the numeric figure in %, leaving out any unit text.

Solved cases (4 shown):
Compound	Reported Measurement
CO[C@H]1C[C@H]2OC[C@@]2(OC(C)=O)[C@H]2[C@H](OC(=O)c3ccccc3)[C@]3(O)C[C@H](OC(=O)[C@H](O)[C@H](CC(C)C)NC(=O)OC(C)(C)C)C(C)=C([C@@H](OC(=O)N(C)C)C(=O)[C@]12C)C3(C)C [PCMI-25]	78.5
COC(=O)O[C@H]1C[C@H]2OC[C@@]2(OC(C)=O)[C@H]2[C@H](OC(=O)c3ccccc3)[C@]3(O)C[C@H](OC(=O)[C@H](O)[C@@H](NC(=O)c4ccccc4)c4ccccc4)C(C)=C([C@@H](OC)C(=O)[C@]12C)C3(C)C [PCMI-37]	80
CO[C@H]1C(=O)[C@]2(C)[C@@H](OC(=O)N(C)C)C[C@H]3OC[C@@]3(OC(C)=O)[C@H]2[C@H](OC(=O)c2ccccc2)[C@]2(O)C[C@H](OC(=O)[C@H](O)[C@@H](NC(=O)c3ccccc3)c3ccccc3)C(C)=C1C2(C)C [PCMI-32]	81.6
COC(=O)O[C@H]1C(=O)[C@]2(C)[C@@H](OC)C[C@H]3OC[C@@]3(OC(C)=O)[C@H]2[C@H](OC(=O)c2ccccc2)[C@]2(O)C[C@H](OC(=O)[C@H](O)[C@@H](NC(=O)OC(C)(C)C)c3ccccc3)C(C)=C1C2(C)C [PCMI-26]	82

Briefly, recovery measured for CCSC(=O)O[C@H]1C[C@H]2OC[C@@]2(OC(C)=O)[C@H]2[C@H](OC(=O)c3ccccc3)[C@]3(O)C[C@H](OC(=O)[C@H](O)[C@@H](NC(=O)N(C)C)c4ccccc4)C(C)=C([C@@H](OC)C(=O)[C@]12C)C3(C)C [PCMI-40] : 70.7

Per the record, CO[C@H]1C[C@H]2OC[C@@]2(OC(C)=O)[C@H]2[C@H](OC(=O)c3ccccc3)[C@]3(O)C[C@H](OC(=O)[C@H](O)[C@@H](NC(=O)OC(C)(C)C)c4ccccc4)C(C)=C([C@@H](OC(=O)N(C)C)C(=O)[C@]12C)C3(C)C [PCMI-22] has recovery of 86.4

CO[C@H]1C(=O)[C@]2(C)C=C[C@@H](O)[C@](CO)(OC(C)=O)[C@H]2[C@H](OC(=O)c2ccccc2)[C@]2(O)C[C@H](OC(=O)[C@H](O)[C@@H](NC(=O)OC(C)(C)C)c3ccccc3)C(C)=C1C2(C)C [PCMI-44] yielded recovery of 106

Entry COC(=O)O[C@H]1C[C@H]2OC[C@@]2(OC(C)=O)[C@H]2[C@H](OC(=O)c3ccccc3)[C@]3(O)C[C@H](OC(=O)[C@H](O)[C@@H](NC(=O)OC(C)(C)C)c4ccccn4)C(C)=C([C@@H](OC)C(=O)[C@]12C)C3(C)C [PCMI-38] ; recovery = 120

Cited source for all entries: patent US10253007B2
